assay: solvent given as SMILES; details: in CN(C)C=O
emission maximum values by entry

Chem smiles	emission maximum
CCCCC1(CCCC)c2cc(C#Cc3ccc4ccc5cccc6ccc3c4c56)ccc2-c2ccc(C#Cc3ccc4ccc5cccc6ccc3c4c56)cc21	441 nm

What does the record list as emission maximum for `Fc1ccc(-c2cc3ccc4cc(-c5ccc(F)cc5)cc5ccc(c2)c3c45)cc1` ?
409.82 nm

Moving on to `COC(=O)c1ccccc1-c1c2ccc(=[NH2+])cc-2oc2cc(N)ccc12`
538 nm

Moving on to `[C-]#[N+]c1ccc(-c2ccc(N(C)C)cc2)cc1`
433 nm

Moving on to `CCn1c2ccsc2c2c3nsnc3c3c4sccc4n(CC)c3c21`
573 nm

Moving on to `CCN(CC)c1ccc(-c2nc(Oc3ccc(-c4nc5ccc(Cl)cc5o4)cc3)nc(Oc3ccc(-c4nc5ccc(Cl)cc5o4)cc3)n2)cc1`
424 nm

Moving on to `CN(C)CCNc1ccc([N+](=O)[O-])cc1[N+](=O)[O-]`
406 nm

Moving on to `Cc1ccc2c(CC(=O)NN)coc2c1`
412 nm

Moving on to `CCCCN1C(=O)C(=CC=C2N(CCCC)c3ccccc3N2CCCC)C(=O)N(CCCC)C1=S`
482 nm

Moving on to `CN(C)CCN(Cc1c2ccccc2c(CN(CCN(C)C)c2ccc([N+](=O)[O-])cc2[N+](=O)[O-])c2ccccc12)c1ccc([N+](=O)[O-])cc1[N+](=O)[O-]`
424 nm

Moving on to `COc1ccc(-c2cc3c4c(c2)CCc2cc(-c5ccc(OC)cc5)cc(c2-4)CC3)cc1`
392.15 nm
